Tested on: 653999-131-R-J2-PDC complex spheroids, growth % test/control;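 also: spheroids exposed to agents for seven days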
Experiment: Anticancer human tumor 653999-131-R-J2-PDC patient-derived lung adenocarcinoma cell line growth inhibition [AhR]
Conditions: second compound 0.316 µM; first compound 0.316 µM; stronger effect = lower value
For each record, check the reported viability, T/C: if it is below 90% write Condition met, else write Condition not met.

COMPOUND	TARGET OR TEST SYSTEM	ANSWER LABEL
CC1COCCN1c1cc(-c2ccnn2C)c2ccnc(-c3ccn[nH]3)c2n1 (stereo unspecified) + Cc1cncc(-c2nc(NCCc3c[nH]c4ccccc34)c3ncn(C(C)C)c3n2)c1	653999-131-R-J2-PDC complex spheroids, growth % test/control	Condition met
CC1(C)CCC(CN2CCN(c3ccc(C(=O)NS(=O)(=O)c4ccc(NCC5CCOCC5)c([N+](=O)[O-])c4)c(Oc4cnc5[nH]ccc5c4)c3)CC2)=C(c2ccc(Cl)cc2)C1 + Cc1ccccc1N=Nc1ccc(NC(=O)c2ccnn2C)c(C)c1	653999-131-R-J2-PDC complex spheroids, growth % test/control	Condition not met
NS(=O)(=O)OCC1CC(n2ccc3c(NC4CCc5ccccc54)ncnc32)CC1O (stereo unspecified) + CC(CO)NC(=O)c1cc(-c2ccc(Cl)cc2)nn(-c2cnn(C)c2)c1=O	653999-131-R-J2-PDC complex spheroids, growth % test/control	Condition not met
CC1COCCN1c1cc(C2(S(C)(=N)=O)CC2)nc(-c2ccnc3[nH]ccc23)n1 (stereo unspecified) + Cc1ccccc1N=Nc1ccc(NC(=O)c2ccnn2C)c(C)c1	653999-131-R-J2-PDC complex spheroids, growth % test/control	Condition not met

*Q* Lab log: compare recorded viability, T/C with 90%; is it strictly lower for CC(C)c1c(-c2ccccc2)nc2c(C#N)c[nH]n2c1=O + CC(CO)NC(=O)c1cc(-c2ccc(Cl)cc2)nn(-c2cnn(C)c2)c1=O ?
*A* Condition not met
